Tested on: mixture of Pseudomonas aeruginosa, Klebsiella pneumoniae, Staphylococcus aureus, and Bacillus subtilis
assay_overview: Growth inhibition assay (microtiter plate-based synergy assay)
Assay type: cell-based
test_context: single active at 1.56 mg/l, 24 h
measured_property: % Inhibition of growth (%)
Report only the number, with the unit % understood.

Ask: Record request: % Inhibition of growth value, item "OBr"
Reply: 0

Ask: Same read-out for O=c1n(Cl)c(=O)n(Cl)c(=O)n1Cl [TCI, trichloroisocyanurate] ?
Reply: 97

Ask: Same read-out for O=c1nc([O-])n(Cl)c(=O)n1Cl.[Na+] [DCI, dichloroisocyanurate] ?
Reply: 98

Ask: Same read-out for [O][Cl+][O-] [ClO2, chlorine dioxide] ?
Reply: 63

Ask: Same read-out for "CC1(C)C(=O)N(Cl)C(=O)N1Br" ?
Reply: 0

Ask: Same read-out for "NCl" ?
Reply: 97

====

System: mixture of Pseudomonas aeruginosa, Klebsiella pneumoniae, Staphylococcus aureus, and Bacillus subtilis
assay_overview: Growth inhibition assay (microtiter plate-based synergy assay)
Format: cell-based
test_context: single active at 3.13 mg/l, 24 h
Let's look at some compounds and their measured % Inhibition of growth.
Report only the number, with the unit % understood.

Observe how each entry below is paired with its result.
compound: O=c1nc([O-])n(Cl)c(=O)n1Cl.[Na+] [DCI, dichloroisocyanurate]
unit: %
% Inhibition of growth: 100
//
compound: O=c1n(Cl)c(=O)n(Cl)c(=O)n1Cl [TCI, trichloroisocyanurate]
unit: %
% Inhibition of growth: 96
//
compound: NCl
unit: %
% Inhibition of growth: 96
//
compound: OBr
unit: %
% Inhibition of growth: 22
//
compound: CC1(C)C(=O)N(Cl)C(=O)N1Br
unit: %
% Inhibition of growth: 2

Would you kindly look at the next entry?
Ask: Record request: % Inhibition of growth value, item [O][Cl+][O-] [ClO2, chlorine dioxide]
Reply: 75
